Values compiled from a melting point compilation (Tetko et al.; mined from patent text by program, amines drawn as free bases though some values may be those of a salt).

Listed below: melting point values for each entry.

>  <compound>
Cc1nc2n(c(=O)c1CCO)CCCN2Cc1ccccc1

>  <melting point>
150 °C

$$$$
>  <compound>
COC(=O)Nc1ccc(Br)c(C)c1

>  <melting point>
71 to 72 °C

$$$$
>  <compound>
CS(=O)(=O)c1ccc(-n2ncc(C#N)c2-c2ccc(-c3ccco3)cc2)cc1F

>  <melting point>
153 to 157 °C

$$$$
>  <compound>
O=C(Nc1ccc(C(F)(F)F)cc1)Nc1cccc(S(=O)(=O)NCCN2CCOCC2)c1

>  <melting point>
62 to 65 °C

$$$$

# query: melting point of entry O=C1NC(=O)C(=Cc2ccc(N3CCC4(CC3)OCCO4)c(Br)c2)S1 109 to 111 °C

###

observation-type: melting point

Observe how each entry below is paired with its result.
>  <compound>
COC(C)(C)C#Cc1ncn2c1CN(C)C(=O)c1ccccc1-2

>  <observation-type>
melting point

>  <assay-result>
136 to 137 °C

$$$$
>  <compound>
CCC(=NOCc1ccc(Cl)cc1)c1cc(Cl)ccc1NS(=O)(=O)C(F)(F)F

>  <observation-type>
melting point

>  <assay-result>
54 to 55 °C

$$$$
>  <compound>
O=[N+]([O-])c1ccc2c(c1)OP(=O)(N(CCCl)CCCl)NC2 (stereo not given)

>  <observation-type>
melting point

>  <assay-result>
123 to 126 °C

$$$$
>  <compound>
Cc1ncnc(Nc2ccc(C(=O)CCC3CCN(Cc4ccccc4)CC3)cc2)c1C

>  <observation-type>
melting point

>  <assay-result>
168 to 170 °C

$$$$
>  <compound>
O=C(O)c1ccc(SC(Cn2ccnc2)c2cccnc2)cc1 (stereo not given)

>  <observation-type>
melting point

>  <assay-result>
80 to 83 °C

$$$$

Name the reported melting point value associated with the compound c1ccc(-c2cc3n(n2)Cc2ccccc2-3)cc1 183 to 184 °C

// next record COc1ccc(CCC(=O)CCI)cc1 38 to 42 °C

What do you have for CC(=O)NCCc1ccc(CN2CCN(c3ccc(F)cc3)CC2)cc1 ? 121 to 123 °C

Similarly, CC(=O)Nc1nc2c(Oc3cc(-c4ccc(C(F)(F)F)cc4NCc4cncn4C)ncn3)cccc2s1 ? 263 to 265 °C

Queued: COc1ccc(C=CC(=O)N2CCN(c3nc(N)c4cc(OC)c(OC)cc4n3)CC2)cc1OC 140 °C

###

Entries and their melting point

Would you mind telling me what melting point value was observed for CCOC(=O)C1(c2ccc(Cl)cc2)OCC(c2ccc(F)cc2)(c2ccc(F)cc2)CO1 ? 150 °C

And for CC(C)(C)c1cc(C(=O)COc2ccc(Cl)cc2Oc2ccc(Cl)cc2Cl)cc(C(C)(C)C)c1O ? 111 to 114 °C

How about CC(C)[C@H](NC(=O)OCc1ccccc1)C(=O)OCc1nc2c(N)nc3ccccc3c2n1CCCCNS(C)(=O)=O ? 99 to 100 °C

O=[N+]([O-])c1ccc(S(=O)(=O)NCc2ccc(Cl)cc2)c([N+](=O)[O-])c1 ? 161 to 162 °C

Can you check COc1nc(C)nc(NC(=O)NS(=O)(=O)c2ccccc2Cc2nnc(SC)s2)n1 next? 140 to 146 °C

Same again, this time with CCCCc1nc2c(N)nc3cccnc3c2n1CCNC(=O)c1c(C)noc1C 188 to 189 °C

Note, next up: FC(F)(F)c1ccc2c(c1)nc(/C=C/c1ccccc1)n2-c1ccccn1 144 to 145 °C

What do you have for Cc1cc(NCCO)c2[nH]ncc2n1 ? 213 to 216 °C

###

Readings of melting point for the listed compounds

>  <compound>
CC(O)c1ccc(-c2ccc([N+](=O)[O-])cc2)o1 (stereo not given)

>  <melting point>
69.5 to 70.5 °C

$$$$
>  <compound>
CNC1C=CC(C(C)C)C2CNCC12 (stereo not given)

>  <melting point>
76 to 81 °C

$$$$
>  <compound>
COC(=O)c1ccc(OCCNC(=O)OCc2ccccc2)cc1Cl

>  <melting point>
88 to 90 °C

$$$$
>  <compound>
COc1cc(OC)c(-c2csc(NC(=O)c3cc4ccccc4[nH]3)n2)c(OC)n1

>  <melting point>
285 to 287 °C

$$$$
>  <compound>
O=C1c2ccccc2C2(O)Oc3cc4ccccc4cc3C12O (stereo not given)

>  <melting point>
220 to 221 °C

$$$$
>  <compound>
CCCCOc1ccc2c(C(F)(F)F)c(OC)ccc2c1C(=O)N(C)CC(=O)O

>  <melting point>
152 to 155 °C

$$$$
>  <compound>
CN1C(=O)CC[C@]2(C)c3ccc(Sc4nccc5sccc45)cc3CC[C@@H]12

>  <melting point>
196 to 197 °C

$$$$
>  <compound>
CCCCOCCOc1ccc(-c2ccc3c(c2)C=C(C(=O)Nc2ccc(S(=O)Cc4ncon4)cc2)CCN3CC(C)C)cc1 (stereo not given)

>  <melting point>
142 to 144 °C

$$$$

For O=C(NC1CCCC1)n1cc(F)c(=O)[nH]c1=O , what is its reported melting point? 137 °C

Then OCc1c(C2CC2)nn2ccc3c(c12)CCO3 ? 139 to 140 °C

Repeat with Cc1noc(NS(=O)(=O)c2ccc(-c3ccc(C(=O)O)cc3)s2)c1Br 219 to 228 °C

Now the compound COCC1CN(c2ccc(C3CCC(O)CC3)cn2)C(=O)O1 (racemic) 142 to 143 °C

Next compound: CC(C)C(=Nc1ccc([N+](=O)[O-])c(C(F)(F)F)c1)N(C)c1ccccc1 52.5 to 54 °C

Quick one: CC(C)(C)OC(=O)N1CC[C@H](c2ccc3c(c2)OCO3)[C@@H](O)C1 (racemic) 112 °C

Next entry: CCOC(=O)c1cn(C)c2cnc3c(F)c(N4CCC(O)(c5cccc(C(F)(F)F)c5)CC4)ccc3c2c1=O > 260 °C

###

observation-type: melting point

>  <molecule>
CCc1ccc(-c2ccc(CCc3ccc(C(F)(F)F)cc3)cc2)cc1

>  <observation-type>
melting point

>  <assay-result>
128 °C

$$$$
>  <molecule>
CC(CCC(F)C(C)(C)O)C1CCC2C3CC=C4CC(O)CC(O)C4(C)C3CCC12C (stereo unspecified)

>  <observation-type>
melting point

>  <assay-result>
156 to 158 °C

$$$$
>  <molecule>
Fc1ccccc1C1=NCc2cnc(Cl)nc2-c2ccc(Cl)cc21

>  <observation-type>
melting point

>  <assay-result>
157 to 160 °C

$$$$
>  <molecule>
Nc1cc(C(=O)Cn2c(-c3nonc3N)nc3ccccc32)ccc1Cl

>  <observation-type>
melting point

>  <assay-result>
228 to 230 °C

$$$$
>  <molecule>
Cc1cc(C2CC2)nc(NC(=O)NS(=O)(=O)c2cccc3c2OS(=O)(=O)C(C)C3)n1 (stereo unspecified)

>  <observation-type>
melting point

>  <assay-result>
216 to 217 °C

$$$$

What value of melting point has been recorded for this entry: CC(C)CCC(=O)OC1c2ccccc2C(=O)N1c1ccc2ccc(Cl)nc2n1 (stereo unspecified) 147 °C

Same again, this time with CNc1nc(CSC)c(-c2ccncc2)s1 135 to 138 °C

Another: CCCc1c2c(c(OC)c3c(=O)cc(C(=O)O)oc13)CCCC2 228 to 229 °C

And then CN(CC(=O)O)C(=O)C(C)(C)Oc1ccc(C(=O)c2ccc(Cl)cc2)cc1 , what is it? 186 to 187 °C

Try this molecule next: CCOC(=O)Cc1sc(Sc2ncccc2C(=O)OCC)nc1C 181 to 183 °C

Request: CC(=O)Nc1ccc(-n2nc(C(=O)NC(C)(C)C)c3c2C2CCC3C2)cc1 (stereo unspecified) 122 to 124 °C

Would you kindly repeat that for CCCCC(CBr)CCCc1ccccc1 (stereo unspecified) ? 31 to 33 °C

Now give it for CCOC(=O)c1cnc2cc(OCc3ccccc3)c(OCc3ccccc3)cn2c1=O too. 175 °C

Same again, this time with CCOc1cc2ncc(C#N)c(Nc3ccc(OCc4ccccc4)c(Cl)c3)c2cc1NC(=O)CC(CN1CCCC1)N1CCCC1 (stereo unspecified) 85 to 87 °C

Please answer likewise for CC(C)(C)OC(=O)N1C[C@@H]([C@H]2COC(C)(C)O2)CC1=O 106 to 108 °C

Do the same for CCOC(=O)c1cn(-c2cccnc2)nc1N please 140 to 141 °C

Now the molecule CC[C@H](C)COc1ccc(-n2cc(C(=O)O)cn2)cc1C#N 184 to 186 °C

Moving on to the next molecule: CCSC(N)=C(C#N)C(N)=S 200 to 201 °C

Lookup CCOP(=O)(C/C=C\CC1(C(=O)NCC(F)(F)F)c2ccccc2-c2ccccc21)OCC 88 to 91 °C

Try CCCCCCCc1ccnc2c(O)cccc12 next. 92 to 93.5 °C

Same lookup for Cc1cc(Nc2ccnc(Nc3ccc(S(=O)(=O)N4CCC(C(O)c5ccncc5)CC4)cc3)n2)ccc1F (stereo unspecified) , please. 162 °C
